Quick reference for inhibition at 2 h, 10 µM among some compounds
# System name: UniProt Q12809
# Sequence (Q12809 whole entry): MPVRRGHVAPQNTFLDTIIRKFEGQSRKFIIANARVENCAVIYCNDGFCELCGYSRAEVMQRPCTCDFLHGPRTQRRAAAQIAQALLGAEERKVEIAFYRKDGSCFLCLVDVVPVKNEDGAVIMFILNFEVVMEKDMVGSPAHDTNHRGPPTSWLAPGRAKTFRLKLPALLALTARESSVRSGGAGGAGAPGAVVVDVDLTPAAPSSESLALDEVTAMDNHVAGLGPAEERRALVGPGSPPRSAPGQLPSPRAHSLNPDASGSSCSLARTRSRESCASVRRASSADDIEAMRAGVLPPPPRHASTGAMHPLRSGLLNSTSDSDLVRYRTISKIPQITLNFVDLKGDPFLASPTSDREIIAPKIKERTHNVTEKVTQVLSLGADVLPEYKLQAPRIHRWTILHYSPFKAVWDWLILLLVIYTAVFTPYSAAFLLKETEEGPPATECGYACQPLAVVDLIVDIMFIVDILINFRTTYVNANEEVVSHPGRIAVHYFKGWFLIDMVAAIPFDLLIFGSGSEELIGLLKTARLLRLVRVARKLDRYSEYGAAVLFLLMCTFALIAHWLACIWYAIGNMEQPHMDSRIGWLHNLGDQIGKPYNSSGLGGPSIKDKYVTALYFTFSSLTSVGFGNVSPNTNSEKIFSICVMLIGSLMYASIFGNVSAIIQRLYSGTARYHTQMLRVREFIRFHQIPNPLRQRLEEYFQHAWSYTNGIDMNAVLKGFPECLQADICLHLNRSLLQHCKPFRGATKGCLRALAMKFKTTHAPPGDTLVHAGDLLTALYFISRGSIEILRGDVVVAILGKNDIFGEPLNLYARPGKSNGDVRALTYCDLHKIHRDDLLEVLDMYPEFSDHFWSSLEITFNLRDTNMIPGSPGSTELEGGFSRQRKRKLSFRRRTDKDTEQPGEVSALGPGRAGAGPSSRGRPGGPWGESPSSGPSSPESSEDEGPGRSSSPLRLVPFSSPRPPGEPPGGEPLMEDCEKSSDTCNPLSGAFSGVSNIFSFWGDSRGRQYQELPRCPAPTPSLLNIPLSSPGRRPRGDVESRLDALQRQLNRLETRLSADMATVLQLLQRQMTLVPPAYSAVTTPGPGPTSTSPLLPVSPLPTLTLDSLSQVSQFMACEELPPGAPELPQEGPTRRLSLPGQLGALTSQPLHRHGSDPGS
# Assay explanation: Inhibition of human ERG at 10 uM incubated for 2 hrs by fluorescence polarisation assay relative to control
Kindly answer with a numeric value in %, unit omitted.

Use the examples below as a reference point.
NC(=S)N/N=C/C=C/c1ccccc1: 7.23
NC(=S)N/N=C/c1ccc(N)cc1: 3.02
NC(=S)N/N=C/c1ccccc1[N+](=O)[O-]: -1.03

Enter reported inhibition at 2 h, 10 µM observed with UniProt Q12809 for COc1ccccc1/C=N/NC(N)=S
5.91

----------
# System name: UniProt:Q96GD4
# Assay explanation: Inhibition of recombinant full-length human aurora B kinase expressed in baculovirus system at 10 uM using MBP as substrate incubated for 45 mins by ADP-glo kinase assay
# Conditions: probe MBP
Quick list: inhibition at 0.75 h, 10 µM per entry.
Report the value in % with no unit label.

N/C(S)=N/N=C/c1cccc(Br)c1: -16.2
NC(=S)N/N=C/c1csc2ccccc12: -4.29
NC(=S)N/N=C/c1cccc(-c2ccccc2)c1: -4.25
NC(=S)N/N=C/c1ccccc1O: 6.53
NC(=S)N/N=C/c1ccc(O)cc1: -5.27
C/C(=N\NC(N)=S)c1ccc(O)cc1: -0.05
COc1ccc(-c2cccc(/C=N/NC(N)=S)c2)cc1OC: -2.55
CN(C)c1ccc(/C=N/N=C(/N)S)c2ccccc12: 0.89
COc1ccccc1/C=N/NC(N)=S: -16.9
NC(=S)N/N=C/c1cccc(-c2ccc3c(c2)OCO3)c1: -3.81

Switching to the query record.
Name the reported inhibition at 0.75 h, 10 µM value associated with the compound COc1cc(/C=N/NC(N)=S)ccc1O
-0.27

----------
# Test system: Trypanosoma cruzi
# Assay explanation: Antitrypanosomal activity against Trypanosoma cruzi amastigote form infected in human U2OS cells assessed as parasite growth inhibition at 50 uM after 72 hrs relative to control
# Type: functional
# Conditions: read-out: GI
Test readout: inhibition of growth at 50 µM (%)
# unit: % | format: bare number

Would you please look over these solved cases?
N/C(S)=N/N=C/c1ccc(Cl)c(Cl)c1: 23.1
NC(=S)N/N=C/c1csc2ccccc12: 24.3
C/C(=N\NC(N)=S)c1ccc(N)cc1: 51.8
NC(=S)N/N=C/c1ccccc1[N+](=O)[O-]: 27.4
Nc1nnc(-c2ccc(Cl)c(Cl)c2)s1: 23.4
Nc1nnc(-c2cccc(Br)c2)s1: 41.6
Nc1nnc(-c2ccc(OCc3ccc(Cl)c(Cl)c3)cc2)s1: 14.5

Kindly consider the entry below.
Which measured inhibition of growth at 50 µM belongs to NC(=S)N/N=C/c1cccc(-c2ccccc2)c1 , tested on Trypanosoma cruzi?
20.2

----------
# System name: Aurora kinase B (Homo sapiens, UniProt Q96GD4)
# Sequence (Q96GD4 whole entry): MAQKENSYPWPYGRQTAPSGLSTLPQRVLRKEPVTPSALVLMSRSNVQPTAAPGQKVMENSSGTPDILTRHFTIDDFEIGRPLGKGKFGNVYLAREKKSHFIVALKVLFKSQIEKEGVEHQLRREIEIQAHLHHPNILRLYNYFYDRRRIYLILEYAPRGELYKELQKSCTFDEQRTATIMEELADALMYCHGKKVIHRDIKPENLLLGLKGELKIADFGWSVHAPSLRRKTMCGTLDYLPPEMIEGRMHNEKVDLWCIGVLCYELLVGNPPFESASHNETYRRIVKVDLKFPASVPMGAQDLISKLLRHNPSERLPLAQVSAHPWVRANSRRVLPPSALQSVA
# Assay explanation: Inhibition of recombinant full-length human aurora B kinase expressed in baculovirus system at 10 uM using MBP as substrate incubated for 45 mins by ADP-glo kinase assay
# Conditions: probe MBP
Examples of compounds with documented inhibition at 0.75 h, 10 µM follow.
// units = %; emit number, no label

Fill in: inhibition at 0.75 h, 10 µM of NC(=S)N/N=C/c1ccccc1[N+](=O)[O-] is ___
-22.8

----------
# System name: UniProtKB Q96GD4
# Assay explanation: Inhibition of recombinant full-length human aurora B kinase expressed in baculovirus system at 10 uM using MBP as substrate incubated for 45 mins by ADP-glo kinase assay
# Conditions: probe MBP
# inhibition at 0.75 h, 10 µM annotations
Output spec: scalar in %, unitless text.

COc1cccc(OC)c1/C=N/NC(N)=S: -18.2
N/C(S)=N/N=C/c1ccc(Cl)c(Cl)c1: -9.56
COc1ccc(/C=N/NC(N)=S)cc1OC: -7.72

# input molecule: C/C(=N\NC(N)=S)c1ccc(N)cc1 ; wanted: its inhibition at 0.75 h, 10 µM
-14.2

What inhibition at 0.75 h, 10 µM value was documented for this molecule, NC(=S)N/N=C/c1ccc2ncccc2c1 ?
0.46

# query: inhibition at 0.75 h, 10 µM of entry CSc1ccc(/C=N/NC(N)=S)cc1
-12.2

Param item = NC(=S)N/N=C/C=C/c1ccccc1 ; retrieve measured inhibition at 0.75 h, 10 µM.
-5.47

// returns reported inhibition at 0.75 h, 10 µM for input NC(=S)N/N=C/C(O)C(O)C(O)CO (stereo not drawn)
-7.51
